System: KRAS-mutant PDC tumor spheroid with HUVEC/MSC, viability;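 also: spheroids exposed to agents for seven days before reading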
Assay: Anticancer human tumor 327498-153-R-J2-PDC patient-derived uterine carcinosarcoma cell line growth inhibition [KRAS2]; active = viability on the fitted dose curve at most 10% of control; inactive = the rest
Conditions: second compound 1 µM; first compound 10 µM
Possible outcomes: active, inactive

{"COMPOUND": "CCNC(=O)CC1N=C(c2ccc(Cl)cc2)c2cc(OC)ccc2-n2c(C)nnc21 (stereo unspecified) + CNCc1ccccc1-c1csc(C(C)Nc2nc(C)nc3cc(OC)c(OC)cc23)c1", "TARGET SYSTEM": "KRAS-mutant PDC tumor spheroid with HUVEC/MSC, viability", "CLASS NAME": "inactive"}
{"COMPOUND": "COc1cc(Nc2ncc3c(n2)-c2ccc(Cl)cc2C(c2c(F)cccc2OC)=NC3)ccc1C(=O)O + CC1OCC2(CCN(c3cnc(Sc4ccnc(N)c4Cl)c(N)n3)CC2)C1N", "TARGET SYSTEM": "KRAS-mutant PDC tumor spheroid with HUVEC/MSC, viability", "CLASS NAME": "active"}
{"COMPOUND": "O=C(c1cc(Cc2n[nH]c(=O)c3ccccc23)ccc1F)N1CCN(C(=O)C2CC2)CC1 + CC1OCC2(CCN(c3cnc(Sc4ccnc(N)c4Cl)c(N)n3)CC2)C1N", "TARGET SYSTEM": "KRAS-mutant PDC tumor spheroid with HUVEC/MSC, viability", "CLASS NAME": "inactive"}
{"COMPOUND": "Cn1nccc1Nc1nccc(-c2cc3c(s2)C(C)(C)N(CCN2CCOCC2)C3=O)n1 + C=CC(=O)N1CCN(c2nc(OCC3CCCN3C)nc3c2CCN(c2cccc4cccc(C)c24)C3)CC1CC#N", "TARGET SYSTEM": "KRAS-mutant PDC tumor spheroid with HUVEC/MSC, viability", "CLASS NAME": "inactive"}
{"COMPOUND": "CC(C)NCC(C(=O)N1CCN(c2ncnc3c2C(C)CC3O)CC1)c1ccc(Cl)cc1 (stereo unspecified) + CNCc1ccccc1-c1csc(C(C)Nc2nc(C)nc3cc(OC)c(OC)cc23)c1", "TARGET SYSTEM": "KRAS-mutant PDC tumor spheroid with HUVEC/MSC, viability", "CLASS NAME": "inactive"}
{"COMPOUND": "CC1OCC2(CCN(c3cnc(Sc4ccnc(N)c4Cl)c(N)n3)CC2)C1N (stereo unspecified) + C=CC(=O)N1CCN(c2nc(=O)n(-c3c(C)ccnc3C(C)C)c3nc(-c4c(O)cccc4F)c(F)cc23)C(C)C1", "TARGET SYSTEM": "KRAS-mutant PDC tumor spheroid with HUVEC/MSC, viability", "CLASS NAME": "inactive"}
